- Tested on: Hs822T
- Protocol details: Inhibition of cell proliferation, CellTiter-Glo, 72 hour
- Assay type: cell-based
- Measurement conditions: Ewing's Sarcoma cell line
pIC50: −log10 of the molar value.
Entries and their measured pIC50 follow.
Measurement label: pIC50

>>> result("CN(C)C/C=C/C(=O)Nc1ccc(C(=O)N2CC[C@H](Nc3ncc(Cl)c(-c4c[nH]c5ccccc45)n3)C2)cc1")
"< 5.30"
>>> result("CN(C)C/C=C/C(=O)Nc1ccc(C(=O)N2CC[C@@H](Nc3ncc(Cl)c(-c4c[nH]c5ccccc45)n3)C2)cc1")
"5.30 to 6.30"
>>> result("CN(C)C/C=C/C(=O)Nc1ccc(C(=O)N2CCC(Nc3ncc(Cl)c(-c4c[nH]c5ccccc45)n3)CC2)cc1")
"5.30 to 6.30"
